target: KRAS G12V (Homo sapiens, UniProt P01116+P62937, G12V); assay: Ras-Raf disruption / FRET / MOA assay (BRAF RBD); assay type: biochemical; conditions: Ras-Raf disruption, with Cyclophilin A; read-out: KRAS G12V FRET data IC50
Sequence (P01116 1-169 isoform P01116-2 G12V limits assumed): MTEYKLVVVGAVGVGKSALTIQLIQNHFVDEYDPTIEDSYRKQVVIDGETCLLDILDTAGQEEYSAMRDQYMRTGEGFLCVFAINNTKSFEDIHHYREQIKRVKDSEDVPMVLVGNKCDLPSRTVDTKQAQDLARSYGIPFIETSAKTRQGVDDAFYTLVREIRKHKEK
Sequence (P62937 whole entry): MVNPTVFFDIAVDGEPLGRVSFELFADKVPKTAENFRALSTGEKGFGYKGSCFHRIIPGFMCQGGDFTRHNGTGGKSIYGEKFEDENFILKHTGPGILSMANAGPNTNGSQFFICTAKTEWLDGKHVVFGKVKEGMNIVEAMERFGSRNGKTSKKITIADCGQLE
reported_endpoint: IC50

Before answering, review these 3 worked examples.
INSERT INTO results (compound, endpoint_result) VALUES
  ('CCn1c(-c2cccnc2[C@H](C)OC)c2c3cc(ccc31)-c1csc(n1)C[C@H](NC(=O)[C@H](C(C)C)N(C)C(=O)N1CC(CN(C)C(=O)[C@@H]3CN3)C1)C(=O)N1CCC[C@H](N1)C(=O)OCC(C)(C)C2 (atropisomer, axis not shown) [Example 225]', '100 to 1000 nM'),
  ('CCn1c(-c2cccnc2[C@H](C)OC)c2c3cc(ccc31)-c1csc(n1)C[C@H](NC(=O)[C@H](C(C)C)N(C)C(=O)N(C)CCN(C)C(=O)[C@H]1CN1)C(=O)N1CCC[C@H](N1)C(=O)OCC(C)(C)C2 (atropisomer, axis not shown) [Example 216]', '100 to 1000 nM'),
  ('CCn1c(-c2cnccc2COC)c2c3cc(ccc31)-c1cccc(c1)C[C@H](NC(=O)[C@H](C(C)C)N(C)C(=O)CCN=C=Nc1ccccc1OC)C(=O)N1CCC[C@H](N1)C(=O)OCC(C)(C)C2 [20 A and B]', '> 10000 nM');

For this compound ( CCn1c(-c2cccnc2[C@H](C)OC)c2c3cc(ccc31)-c1cc(O)cc(c1)C[C@H](NC(=O)[C@H](C(C)C)N(C)C(=O)N1CC[C@@H](N(C)C(=O)[C@H]3CN3)C1)C(=O)N1CCC[C@H](N1)C(=O)OCC(C)(C)C2 (atropisomer, axis not shown) [Example 252] ), measured IC50 is 100 to 1000 nM

Data origin, for the record: patent US20230233569A1
